biological target: Collagenase 3 (Homo sapiens, UniProt P45452); test: Inhibition of full length human recombinant MMP13 using MCA-Arg-Pro-Leu-Gly-Leu-Dpa-Ala-Arg-Glu-Arg-NH2 as substrate preincubated for 60 mins followed by substrate addition by fluorescence assay
Parameter measured: pKi
Give bare numbers, as −log10 of the molar value.

| Compound | Parameter measured | Recorded number |
| --- | --- | --- |
| COc1cccc(CNC(=O)c2cc(-c3nnn(CC4COCCO4)n3)cc(C)n2)c1 (racemic) | pKi | 7.85 |

# map each compound to its pKi
1. COc1cccc(CNC(=O)c2cc(-c3nnn(CC4CCCCO4)n3)cc(C)n2)c1 (single isomer, unassigned; (-))
2. Cc1cc(-c2nnn(C[C@H]3CC[C@H](CO)CC3)n2)cc(C(=O)NCc2ccc(F)c(C)c2)n1
3. Cc1cc(-c2nnn(C[C@H]3CC[C@H](CO)CC3)n2)cc(C(=O)NCc2ccccc2)n1
4. Cc1cccc(CNC(=O)c2cc(-c3nnn(C[C@H]4CC[C@H](CO)CC4)n3)cc(C)n2)c1
5. COc1cccc(CNC(=O)c2cc(-c3nnn(C[C@H]4CC[C@@H](CO)CC4)n3)cc(C)n2)c1
6. COc1cccc(CNC(=O)c2cc(-c3nnn(C[C@H]4CC[C@H](NS(C)(=O)=O)CC4)n3)cc(C)n2)c1

1: 8.11; 2: 8.42; 3: 6.92; 4: 7.33; 5: 8.39; 6: 9.60

# per-item lookup of pKi; items listed below
1. COc1cc(CNC(=O)c2cc(-c3nnn(C[C@H]4CO[C@H](CO)CO4)n3)nc(C)n2)ccc1F
2. Cc1cc(-c2nnn(C[C@H]3CC[C@H](CO)CC3)n2)cc(C(=O)NCc2ccc(F)c(Cl)c2)n1
3. COc1cccc(CNC(=O)c2cc(-c3nnn(C[C@H]4CC[C@H](NC(C)=O)CC4)n3)cc(C)n2)c1
4. COc1cccc(CNC(=O)c2cc(-c3nnn(C[C@H]4CC[C@@H](O)CC4)n3)cc(C)n2)c1
5. COc1cccc(CNC(=O)c2cc(-c3nnn(CC4CCN(S(C)(=O)=O)CC4)n3)cc(C)n2)c1
6. COc1cccc(CNC(=O)c2cc(-c3nnn(C[C@H]4CO[C@H](CO)CO4)n3)cc(C)n2)c1 (racemic)

1: 8.82; 2: 8.40; 3: 8.70; 4: 7.96; 5: 8.24; 6: 7.93
